# target-system: Luciferin 4-monooxygenase (Photinus pyralis) (UniProt P08659)
# Sequence (P08659 whole entry, looked up): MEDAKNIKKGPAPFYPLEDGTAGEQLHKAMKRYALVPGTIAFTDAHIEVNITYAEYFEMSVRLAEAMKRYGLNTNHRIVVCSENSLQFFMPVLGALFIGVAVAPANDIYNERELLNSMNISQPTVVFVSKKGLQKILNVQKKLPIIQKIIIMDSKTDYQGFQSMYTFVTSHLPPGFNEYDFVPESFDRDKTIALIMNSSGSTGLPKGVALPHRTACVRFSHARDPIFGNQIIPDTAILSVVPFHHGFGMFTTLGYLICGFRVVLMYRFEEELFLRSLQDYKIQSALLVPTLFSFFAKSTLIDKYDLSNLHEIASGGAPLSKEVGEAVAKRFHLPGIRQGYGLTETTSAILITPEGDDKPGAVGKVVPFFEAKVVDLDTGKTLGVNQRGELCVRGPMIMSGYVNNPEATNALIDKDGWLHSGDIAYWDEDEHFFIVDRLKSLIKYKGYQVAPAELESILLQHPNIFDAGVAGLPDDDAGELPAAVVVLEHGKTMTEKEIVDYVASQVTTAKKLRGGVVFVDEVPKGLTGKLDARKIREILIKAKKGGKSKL
# method: qHTS assay to identify small molecule inhibitors of firefly luciferase (AID 1224835); also: nearly all actives have a fitted effect of over 25% in size
# test-context: purified P. pyralis luciferase, luminescence inhibition; series mostly up to 115 µM
# Source text: U.S. Tox21 Program National Center for Advancing Translational Sciences [NCATS] NIH Chemical Genomics Center [NCGC] U.S. Environmental Protection Agency [EPA] National Institutes of Environmental Health Sciences [NIEHS] National Toxicology Program [NTP] U.S. Food and Drug Administration [FDA] Tox21 Assay Overview: Firefly (Photinus pyralis) luciferase is one of the most commonly used transcriptional reporters. […]
Inconclusive results are not listed. The source made the active and inactive calls. Calls follow the shape of the dose curve; as a rule, active = well fitted inhibition curve with a large enough effect in the repeat runs; inconclusive = weak or mixed curves; inactive = flat fitted curve, though single readings scatter.
Field 'call' accepts active, inactive

Past entries and their recorded results:
- compound: "Nc1cccc(O)c1"
  class-assignment: "inactive"
- compound: "CC(C)OC(=O)CCCCC(=O)OC(C)C"
  class-assignment: "inactive"
- compound: "CCn1ccc(NS(=O)(=O)c2ccc(N)cc2)nc1=O"
  class-assignment: "inactive"

What classification did "CNC(=O)[C@H]1O[C@@H](n2cnc3c(NCc4cc(Cl)ccc4OCc4cc(C)no4)ncnc32)[C@H](O)[C@@H]1N" end up with in this test?
inactive

Lab log entry: "Nc1ccc(S(=O)(=O)Nc2ccc(Cl)nn2)cc1" — outcome as called in the assay?
inactive

Tell me the recorded outcome of this test for "C=Cc1ccccn1" .
inactive
